What abundance fitness was measured for each of the following?
B1: Poly(rC)-binding protein 1, residues 278 to 350; numbered along this chain, Q15365 (parent)
chain: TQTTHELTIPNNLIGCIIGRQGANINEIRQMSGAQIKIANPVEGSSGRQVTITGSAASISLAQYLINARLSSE

# Variants of: B1
# protocolText: abundance fitness (aPCA) (normalised: wild type 0, dead -1); higher = more abundant; growth selection in yeast, the domain comes from the species named
# particulars: Homo sapiens

QUERY: Could you please provide reported abundance fitness for "H5T" ? Thanks!
RESULT: 0.066

QUERY: Could you please provide reported abundance fitness for "R48I" ? Thanks!
RESULT: -0.205

QUERY: Could you please provide reported abundance fitness for "K37G" ? Thanks!
RESULT: -0.255

QUERY: Could you please provide reported abundance fitness for "G22M" ? Thanks!
RESULT: -0.205

QUERY: Could you please provide reported abundance fitness for "P10Q" ? Thanks!
RESULT: -0.538

QUERY: Could you please provide reported abundance fitness for "E73C" ? Thanks!
RESULT: -0.14

QUERY: Could you please provide reported abundance fitness for "S55P" ? Thanks!
RESULT: -0.102

QUERY: Could you please provide reported abundance fitness for "Q2R" ? Thanks!
RESULT: 0.054

QUERY: Could you please provide reported abundance fitness for "R29L" ? Thanks!
RESULT: -0.386

QUERY: Could you please provide reported abundance fitness for "N11A" ? Thanks!
RESULT: -0.075

QUERY: Could you please provide reported abundance fitness for "G22R" ? Thanks!
RESULT: -0.271

QUERY: Could you please provide reported abundance fitness for "V42R" ? Thanks!
RESULT: -0.012

QUERY: Could you please provide reported abundance fitness for "Q63L" ? Thanks!
RESULT: 0.116

QUERY: Could you please provide reported abundance fitness for "I9R" ? Thanks!
RESULT: -0.732

QUERY: Could you please provide reported abundance fitness for "T53Q" ? Thanks!
RESULT: -0.075

QUERY: Could you please provide reported abundance fitness for "T1Q" ? Thanks!
RESULT: -0.559

QUERY: Could you please provide reported abundance fitness for "I36R" ? Thanks!
RESULT: -0.835

QUERY: Could you please provide reported abundance fitness for "A68E" ? Thanks!
RESULT: 0.21

QUERY: Could you please provide reported abundance fitness for "E27Q" ? Thanks!
RESULT: 0.028

QUERY: Could you please provide reported abundance fitness for "E6Q" ? Thanks!
RESULT: 0.156

QUERY: Could you please provide reported abundance fitness for "T8K" ? Thanks!
RESULT: -0.128

QUERY: Could you please provide reported abundance fitness for "R29T" ? Thanks!
RESULT: -0.085

QUERY: Could you please provide reported abundance fitness for "I36F" ? Thanks!
RESULT: -0.5

QUERY: Could you please provide reported abundance fitness for "G47Q" ? Thanks!
RESULT: 0.054

QUERY: Could you please provide reported abundance fitness for "Q30K" ? Thanks!
RESULT: 0.172

QUERY: Could you please provide reported abundance fitness for "R48V" ? Thanks!
RESULT: -0.093

QUERY: Could you please provide reported abundance fitness for "S71D" ? Thanks!
RESULT: -0.044

QUERY: Could you please provide reported abundance fitness for "S60K" ? Thanks!
RESULT: -0.047

QUERY: Could you please provide reported abundance fitness for "N40I" ? Thanks!
RESULT: -0.553

QUERY: Could you please provide reported abundance fitness for "R20I" ? Thanks!
RESULT: -0.074

QUERY: Could you please provide reported abundance fitness for "T3R" ? Thanks!
RESULT: 0.119

QUERY: Could you please provide reported abundance fitness for "S46F" ? Thanks!
RESULT: 0.002

QUERY: Could you please provide reported abundance fitness for "N24A" ? Thanks!
RESULT: 0.007

QUERY: Could you please provide reported abundance fitness for "T53D" ? Thanks!
RESULT: -0.51

QUERY: Could you please provide reported abundance fitness for "A39G" ? Thanks!
RESULT: 0.061

QUERY: Could you please provide reported abundance fitness for "G47D" ? Thanks!
RESULT: 0.032

QUERY: Could you please provide reported abundance fitness for "G47M" ? Thanks!
RESULT: 0.043

QUERY: Could you please provide reported abundance fitness for "T3Y" ? Thanks!
RESULT: -0.221

QUERY: Could you please provide reported abundance fitness for "T53H" ? Thanks!
RESULT: -0.491

QUERY: Could you please provide reported abundance fitness for "E43M" ? Thanks!
RESULT: 0.05

QUERY: Could you please provide reported abundance fitness for "V50H" ? Thanks!
RESULT: -0.596

QUERY: Could you please provide reported abundance fitness for "S45E" ? Thanks!
RESULT: 0.002

QUERY: Could you please provide reported abundance fitness for "L13H" ? Thanks!
RESULT: -0.051

QUERY: Could you please provide reported abundance fitness for "Q2P" ? Thanks!
RESULT: -0.128

QUERY: Could you please provide reported abundance fitness for "N12P" ? Thanks!
RESULT: -0.186

QUERY: Could you please provide reported abundance fitness for "S45V" ? Thanks!
RESULT: -0.012

QUERY: Could you please provide reported abundance fitness for "N11H" ? Thanks!
RESULT: -0.025

QUERY: Could you please provide reported abundance fitness for "P10C" ? Thanks!
RESULT: -0.577

QUERY: Could you please provide reported abundance fitness for "E73G" ? Thanks!
RESULT: -0.016

QUERY: Could you please provide reported abundance fitness for "S32C" ? Thanks!
RESULT: -0.201

QUERY: Could you please provide reported abundance fitness for "G54A" ? Thanks!
RESULT: -0.916

QUERY: Could you please provide reported abundance fitness for "N24H" ? Thanks!
RESULT: -0.049

QUERY: Could you please provide reported abundance fitness for "R20T" ? Thanks!
RESULT: -0.167

QUERY: Could you please provide reported abundance fitness for "I59Y" ? Thanks!
RESULT: -0.93

QUERY: Could you please provide reported abundance fitness for "R69G" ? Thanks!
RESULT: -0.626

QUERY: Could you please provide reported abundance fitness for "S71R" ? Thanks!
RESULT: -0.056

QUERY: Could you please provide reported abundance fitness for "K37Y" ? Thanks!
RESULT: 0.007

QUERY: Could you please provide reported abundance fitness for "R48C" ? Thanks!
RESULT: -0.114

QUERY: Could you please provide reported abundance fitness for "L7P" ? Thanks!
RESULT: -1.03

QUERY: Could you please provide reported abundance fitness for "C16A" ? Thanks!
RESULT: 0.059

QUERY: Could you please provide reported abundance fitness for "G15I" ? Thanks!
RESULT: -0.751

QUERY: Could you please provide reported abundance fitness for "A57F" ? Thanks!
RESULT: -0.096

QUERY: Could you please provide reported abundance fitness for "G22V" ? Thanks!
RESULT: -0.703

QUERY: Could you please provide reported abundance fitness for "G15R" ? Thanks!
RESULT: -0.136

QUERY: Could you please provide reported abundance fitness for "I52H" ? Thanks!
RESULT: -0.927

QUERY: Could you please provide reported abundance fitness for "V42L" ? Thanks!
RESULT: -0.151

QUERY: Could you please provide reported abundance fitness for "T51K" ? Thanks!
RESULT: 0.005

QUERY: Could you please provide reported abundance fitness for "G44D" ? Thanks!
RESULT: -0.087

QUERY: Could you please provide reported abundance fitness for "A56E" ? Thanks!
RESULT: -0.044

QUERY: Could you please provide reported abundance fitness for "Q2I" ? Thanks!
RESULT: 0.118

QUERY: Could you please provide reported abundance fitness for "I28G" ? Thanks!
RESULT: -0.78

QUERY: Could you please provide reported abundance fitness for "G15D" ? Thanks!
RESULT: 0.002

QUERY: Could you please provide reported abundance fitness for "L65T" ? Thanks!
RESULT: -0.462

QUERY: Could you please provide reported abundance fitness for "E6S" ? Thanks!
RESULT: 0.08

QUERY: Could you please provide reported abundance fitness for "S60L" ? Thanks!
RESULT: -0.354

QUERY: Could you please provide reported abundance fitness for "I59P" ? Thanks!
RESULT: -0.764

QUERY: Could you please provide reported abundance fitness for "K37W" ? Thanks!
RESULT: -0.215

QUERY: Could you please provide reported abundance fitness for "Q35S" ? Thanks!
RESULT: -0.012

QUERY: Could you please provide reported abundance fitness for "G22K" ? Thanks!
RESULT: -0.329

QUERY: Could you please provide reported abundance fitness for "A57H" ? Thanks!
RESULT: 0.051

QUERY: Could you please provide reported abundance fitness for "N40D" ? Thanks!
RESULT: 0.034

QUERY: Could you please provide reported abundance fitness for "S71I" ? Thanks!
RESULT: -0.434

QUERY: Could you please provide reported abundance fitness for "M31I" ? Thanks!
RESULT: -0.196

QUERY: Could you please provide reported abundance fitness for "L61Q" ? Thanks!
RESULT: 0.111

QUERY: Could you please provide reported abundance fitness for "Q49A" ? Thanks!
RESULT: 0.006

QUERY: Could you please provide reported abundance fitness for "G44T" ? Thanks!
RESULT: -0.374

QUERY: Could you please provide reported abundance fitness for "I52R" ? Thanks!
RESULT: -0.996

QUERY: Could you please provide reported abundance fitness for "I59L" ? Thanks!
RESULT: -0.355

QUERY: Could you please provide reported abundance fitness for "Y64W" ? Thanks!
RESULT: -0.209

QUERY: Could you please provide reported abundance fitness for "I38C" ? Thanks!
RESULT: -0.793

QUERY: Could you please provide reported abundance fitness for "L7S" ? Thanks!
RESULT: -0.468
